system: ICS; experiment: qHTS profiling for inhibitors of Plasmodium falciparum proliferation (AID 504749); note: nearly all actives have a fitted effect of over 60% in size; settings: P. falciparum in erythrocytes, SYBR Green DNA, 72 h; series mostly up to 28.7 µM
Records with an inconclusive call do not appear. Calls of active or inactive are those of the source. Calls come from the whole dose curve; as a rule, active = well fitted inhibition curve with a large enough effect; inconclusive = small, poorly fitted or top-dose-only effect; inactive = flat fitted curve, though single readings scatter.
Outcome codes: active, inactive

[[record]]
molecule = "Cc1ccc(C(=O)C(C)CN2CCCCC2)cc1 (stereo not given)"
assignedcategory = "active"

[[record]]
molecule = "Cc1c(N(C)CS(=O)(=O)O)c(=O)n(-c2ccccc2)n1C"
assignedcategory = "inactive"

[[record]]
molecule = "CO/N=C1\\CN(c2nc3c(cc2F)c(=O)c(C(=O)O)cn3C2CC2)CC1CN (stereo not given)"
assignedcategory = "active"

[[record]]
molecule = "O=C(O)CNC(=O)c1ccccc1"
assignedcategory = "inactive"

[[record]]
molecule = "Cc1cc(=O)n(-c2ccccc2)n1C"
assignedcategory = "inactive"

[[record]]
molecule = "Cc1ccnc(NS(=O)(=O)c2ccc(N)cc2)n1"
assignedcategory = "inactive"

[[record]]
molecule = "CCC(C(=O)OCCN(CC)CC)c1ccccc1 (stereo not given)"
assignedcategory = "inactive"

[[record]]
molecule = "C[C@]12CC[C@@H]3c4ccc(O)cc4CC[C@H]3[C@@H]1CC[C@@H]2O"
assignedcategory = "inactive"

[[record]]
molecule = "COc1cc(-c2ccc(=O)[nH]n2)ccc1OC(F)F"
assignedcategory = "inactive"

[[record]]
molecule = "CCCCCC=CCC=CCCCCCCCC(=O)OCC"
assignedcategory = "inactive"

[[record]]
molecule = "Cc1c(C(C)C)c(=O)n(-c2ccccc2)n1C"
assignedcategory = "inactive"

[[record]]
molecule = "CCC(=O)c1c(O)cc(O)cc1O"
assignedcategory = "inactive"

[[record]]
molecule = "Clc1ccc2c(c1)CCc1cccnc1C2=C1CCNCC1"
assignedcategory = "active"

[[record]]
molecule = "COC(=O)[C@@H]1CC2=CC(=O)CC[C@]2(C)[C@@]23O[C@@H]2C[C@@]2(C)[C@@H](CC[C@@]24CCC(=O)O4)[C@H]13"
assignedcategory = "inactive"

[[record]]
molecule = "CN(C)C(=S)SC(=S)N(C)C"
assignedcategory = "active"

[[record]]
molecule = "C=CCc1ccc(O)c(OC)c1"
assignedcategory = "inactive"

[[record]]
molecule = "CCCCCCCCCCCCCCCCCC(=O)OCC(O)CO (stereo not given)"
assignedcategory = "inactive"

[[record]]
molecule = "Nc1ccc(C(=O)O)cc1"
assignedcategory = "inactive"

[[record]]
molecule = "CN1CCN(C(c2ccccc2)c2ccccc2)CC1"
assignedcategory = "inactive"

[[record]]
molecule = "CN1CCC[C@@H]1c1cccnc1"
assignedcategory = "inactive"

[[record]]
molecule = "CCCCOc1ccc(OCCCN2CCOCC2)cc1"
assignedcategory = "inactive"

[[record]]
molecule = "CC(C)(CO)[C@@H](O)C(=O)NCCCO"
assignedcategory = "inactive"

[[record]]
molecule = "Oc1c(Cl)cc(Cl)cc1Sc1cc(Cl)cc(Cl)c1O"
assignedcategory = "inactive"

[[record]]
molecule = "C#C[C@]1(OC(C)=O)CC[C@H]2[C@@H]3CCC4=C[C@@H](OC(C)=O)CC[C@@H]4[C@H]3CC[C@@]21C"
assignedcategory = "inactive"

[[record]]
molecule = "Oc1ccc(O)cc1"
assignedcategory = "active"

[[record]]
molecule = "CCCn1c(=O)[nH]c(=O)c2[nH]cnc21"
assignedcategory = "inactive"

[[record]]
molecule = "CCCOC(C(=O)OC1CCN(C)CC1)(c1ccccc1)c1ccccc1"
assignedcategory = "active"

[[record]]
molecule = "O=C1OC(c2ccc(O)cc2)(c2ccc(O)cc2)c2ccccc21"
assignedcategory = "inactive"

[[record]]
molecule = "CNCCC=C1c2ccccc2CCc2ccccc21"
assignedcategory = "active"

[[record]]
molecule = "NC(=NCCCCCCN=C(N)/N=C(\\N)Nc1ccc(Cl)cc1)/N=C(\\N)Nc1ccc(Cl)cc1"
assignedcategory = "active"

[[record]]
molecule = "Nc1ccc(C(=O)Nc2ccccc2N)cc1"
assignedcategory = "inactive"

[[record]]
molecule = "COc1ccc(CN2CCN(C(c3ccc(F)cc3)c3ccc(F)cc3)CC2)c(OC)c1OC"
assignedcategory = "active"

[[record]]
molecule = "O=C(N/N=C/c1ccccc1O)c1ccncc1"
assignedcategory = "active"

[[record]]
molecule = "O=C(O)c1cc2cc(Cc3cccnc3)ccc2o1"
assignedcategory = "inactive"

[[record]]
molecule = "CC[N+](CC)(CCNC(=O)C(=O)NCC[N+](CC)(CC)Cc1ccccc1Cl)Cc1ccccc1Cl"
assignedcategory = "active"

[[record]]
molecule = "COc1cc(C(=S)N2CCOCC2)cc(OC)c1OC"
assignedcategory = "inactive"

[[record]]
molecule = "CC(C)NC[C@@H](O)COc1cccc2ccccc12"
assignedcategory = "active"

[[record]]
molecule = "CCOc1ccc(Cc2nccc3cc(OCC)c(OCC)cc23)cc1OCC"
assignedcategory = "inactive"

[[record]]
molecule = "COCc1c(C(C)C)nc(C(C)C)c(/C=C/[C@@H](O)C[C@@H](O)CC(=O)O)c1-c1ccc(F)cc1"
assignedcategory = "inactive"

[[record]]
molecule = "O=C(OCCOCCO)c1ccccc1Nc1cccc(C(F)(F)F)c1"
assignedcategory = "inactive"

[[record]]
molecule = "COc1c2occc2c(OC)c2c(=O)cc(C)oc12"
assignedcategory = "inactive"

[[record]]
molecule = "OCc1ccccc1O"
assignedcategory = "inactive"

[[record]]
molecule = "CCCCOc1ccc(C(=O)CCN2CCCCC2)cc1"
assignedcategory = "inactive"

[[record]]
molecule = "CC(=O)N(O)CCCCCNC(=O)CCC(=O)N(O)CCCCCNC(=O)CCC(=O)N(O)CCCCCN"
assignedcategory = "inactive"

[[record]]
molecule = "CC(=O)Oc1ccc(C(c2ccc(OC(C)=O)cc2)c2ccccn2)cc1"
assignedcategory = "inactive"

[[record]]
molecule = "O=C(Nc1ccc(Cl)c(Cl)c1)C1CC1"
assignedcategory = "inactive"

[[record]]
molecule = "CN(C)CCCOc1nn(Cc2ccccc2)c2ccccc12"
assignedcategory = "inactive"

[[record]]
molecule = "NCCC(O)(P(=O)(O)O)P(=O)(O)O"
assignedcategory = "inactive"

[[record]]
molecule = "Oc1ccc(Cl)cc1Sc1cc(Cl)ccc1O"
assignedcategory = "active"

[[record]]
molecule = "Oc1ccc(Cl)c2cccnc12"
assignedcategory = "active"


The measured values listed here are drawn from PubChem BioAssay (NCATS).
